- experimentalSystem: Sodium/hydrogen exchanger 9B2 (Homo sapiens) (UniProt Q86UD5)
- Sequence (Q86UD5 whole entry, looked up): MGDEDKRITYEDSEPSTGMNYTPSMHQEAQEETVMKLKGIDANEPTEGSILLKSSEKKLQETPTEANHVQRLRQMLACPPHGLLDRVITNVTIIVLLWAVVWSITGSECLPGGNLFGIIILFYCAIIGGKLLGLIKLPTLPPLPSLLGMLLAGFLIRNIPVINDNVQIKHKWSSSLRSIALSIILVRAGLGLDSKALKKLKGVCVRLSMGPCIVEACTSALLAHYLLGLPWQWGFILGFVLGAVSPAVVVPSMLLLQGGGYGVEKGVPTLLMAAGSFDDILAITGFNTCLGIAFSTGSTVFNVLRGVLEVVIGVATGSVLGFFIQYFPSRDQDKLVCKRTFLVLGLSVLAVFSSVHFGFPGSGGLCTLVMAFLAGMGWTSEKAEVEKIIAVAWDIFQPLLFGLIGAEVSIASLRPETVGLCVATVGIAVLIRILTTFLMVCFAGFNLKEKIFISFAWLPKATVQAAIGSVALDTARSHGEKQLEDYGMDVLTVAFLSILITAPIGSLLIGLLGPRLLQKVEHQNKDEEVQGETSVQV
- procedureDetails: SLC9B2 inhibition via intracellular pH change, dose response, cell-based, pHluorin biosensor fluorescence, HEK-293, SLC9B2 overexpression (AID 1794821)
- conditionDescription: HEK-293 SLC9B2 OE
readoutName: IC50

Exercise: Given the entry O=C(CCc1ccc(O)cc1)c1c(O)cc(O)cc1O , what IC50 was observed with Sodium/hydrogen exchanger 9B2 (Homo sapiens) (UniProt Q86UD5)?
Solution: 90 µM
